Biological target: KRAS-G12D (Homo sapiens, UniProt P01116, G12D)
Sequence (P01116 with tags, fused parts or gaps isoform P01116-2 G12D): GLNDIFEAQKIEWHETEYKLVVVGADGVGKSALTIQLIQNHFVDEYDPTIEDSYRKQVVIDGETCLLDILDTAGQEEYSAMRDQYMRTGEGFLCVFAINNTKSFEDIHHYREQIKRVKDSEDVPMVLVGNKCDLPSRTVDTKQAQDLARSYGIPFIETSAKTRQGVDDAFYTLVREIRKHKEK
Experiment: SOS-catalyzed nucleotide exchange assay (Procedure A, TR-FRET), KRAS-G12D
Assay type: biochemical
Details: nucleotide exchange, read-out: KRAS G12D GNE IC50
Listed here: items and their measured IC50.
Answer with a number only, understood to be in nM.

Data request: IC50 lookup needed for C#CC(F)(F)c1c(C)cc2[nH]ncc2c1-c1nccc2c1sc1nc(OC[C@@]34CCCN3C[C@H](F)C4)nc(N3CCOC[C@@](C)(O)C3)c12 [Ex-153] , thanks.
Data returned: 123

Data request: IC50 lookup needed for C[C@@]1(O)COCCN(c2nc(OC[C@@]34CCCN3C[C@H](F)C4)nc3sc4c(-c5cccc(Cl)c5C5CC5)nncc4c23)C1 [Ex-284] , thanks.
Data returned: 195

Data request: IC50 lookup needed for C[C@@]1(O)COCCN(c2nc(OC[C@]3(CN4CC5(CCO5)C4)CC3(F)F)nc3sc4c(-c5c(C6(F)CC6)c(Cl)cc6[nH]ncc56)nccc4c23)C1 [Ex-265] , thanks.
Data returned: 4.21

* * *

Listed here: items and their measured pIC50.
Molecular target: KRAS-G12D (Homo sapiens, UniProt P01116, G12D)
Experiment: SOS-catalyzed nucleotide exchange assay (Procedure A, TR-FRET), KRAS-G12D
Format: biochemical
Details: nucleotide exchange, read-out: KRAS G12D GNE IC50
In textbook form, pIC50 equals minus log to base ten of the concentration in mol/L.

// below: answered compounds
>  <Compound>
Cc1cc2[nH]ncc2c(-c2nccc3c2sc2nc(OC[C@@]45CCCN4C[C@H](F)C5)nc(N4CCOC[C@@](C)(O)C4)c23)c1C(C)(F)F

>  <Observation Type>
pIC50

>  <Val>
6.92

$$$$
>  <Compound>
Cn1c2nc(OC[C@@]34CCCN3C[C@H](F)C4)nc(N3CCOC[C@@](C)(O)C3)c2c2ccnc(-c3c(C4(F)CC4)c(Cl)cc4[nH]ncc34)c21 (single isomer, unassigned)

>  <Observation Type>
pIC50

>  <Val>
7.98

$$$$
>  <Compound>
Cc1cc2[nH]ncc2c(-c2nccc3c2sc2nc(OC[C@@]45CCCN4C[C@H](F)C5)nc(N4CCOCC4)c23)c1C(F)(F)F

>  <Observation Type>
pIC50

>  <Val>
5.12

$$$$

Data request: Notebook: pull reported pIC50 for KRAS-G12D (Homo sapiens, UniProt P01116, G12D), entry C[C@@]1(O)COCCN(c2nc(OC[C@]3(CN4CC5CC4(CF)C5)CC3(F)F)nc3sc4c(-c5c(C6(F)CC6)c(Cl)cc6[nH]ncc56)nccc4c23)C1
Data returned: 7.95

Data request: Notebook: pull reported pIC50 for KRAS-G12D (Homo sapiens, UniProt P01116, G12D), entry F[C@H]1CN2CCC[C@@]2(COc2nc(N3CCCOCC3)c3c(n2)sc2c(-c4c(C5CC5)c(Cl)cc5[nH]ncc45)nncc23)C1
Data returned: 6.69

* * *

Target: KRAS-G12D (Homo sapiens, UniProt P01116, G12D)
Assay: SOS-catalyzed nucleotide exchange assay (Procedure A, TR-FRET), KRAS-G12D
Assay type: biochemical
Conditions: nucleotide exchange, read-out: KRAS G12D GNE IC50
pIC50: −log10 of the molar value.
Note to self: class labels come from recorded pIC50, ranges listed here: c1 = under 7, c2 = from 7 up to 8, c3 = 8 and over

Consider the worked cases shown below.
>  <Molecule>
C[C@@]1(O)COCCN(c2nc(OC[C@]3(CN4CCC4)CC3(F)F)nc3sc4c(-c5c(C6(F)CC6)c(Cl)cc6[nH]ncc56)nccc4c23)C1 [Ex-239]

>  <Class Assignment>
c3

$$$$
>  <Molecule>
C[C@@]1(O)COCCN(c2nc(OC[C@@]34CCCN3C[C@H](F)C4)nc3sc4c(-c5c6c(cc7[nH]ncc57)CC=C6C5CC5)nccc4c23)C1 [Ex-105]

>  <Class Assignment>
c2

$$$$

Data request: Please indicate the class for Cc1cc2[nH]ncc2c(-c2nccc3c4c(N5CCOC[C@@](C)(O)C5)nc(OC[C@]5(CN(C)C)CC5(F)F)nc4n(C)c23)c1C(F)(F)F [Ex-20] based on its pIC50.
Data returned: c2

Data request: Please indicate the class for Cn1c2nc(OC[C@@]34CCCN3C[C@H](F)C4)nc(N3CCOC[C@@](C)(O)C3)c2c2ccnc(-c3ccc(F)c4sc(N)c(C#N)c34)c21 [Ex-16] based on its pIC50.
Data returned: c1

Data request: Please indicate the class for C[C@@]1(O)COCCN(c2nc(OC[C@@]34CCCN3C[C@H](F)C4)nc3sc4c(-c5ccc(F)c6sc(N)c(C#N)c56)cncc4c23)C1 [Ex-274] based on its pIC50.
Data returned: c1
